# tested.system: SARS-CoV-2 3CL protease (Severe acute respiratory syndrome coronavirus 2, UniProt P0DTD1)
# Construct: measures the activity of full-length SARS-CoV-2 3CL protease
# protocol: SARS-CoV-2 Coronavirus 3C Protease FRET Assay
# Format: biochemical
# test.conditions: Examples 14-78 and 114 (second head of Table 2); Morrison equation fit, 15 nM enzyme, 25 μM peptide substrate; read-out: Geometric Mean Ki (nM) IC50
measured.attribute: Ki (nM)
Give bare numbers, in nM.

Answered examples (2):
• CC[C@@H]([C@H](NS(=O)(=O)C(F)(F)F)C(=O)N1C[C@H]2[C@@H]([C@H]1C(=O)N[C@@H](C[C@@H]1CCNC1=O)C(=O)COc1ccc(F)cc1F)C2(C)C)C(F)(F)F = 203
• Cc1ccc2c(OCC(=O)[C@H](C[C@@H]3CCNC3=O)NC(=O)[C@@H]3[C@@H]4[C@H](CN3C(=O)[C@@H](NC(=O)C(F)(F)F)C(C)C)C4(C)C)noc2c1 = 10.5

q: Report Ki for "COC(=O)N[C@H](C(=O)N1C[C@H]2[C@@H]([C@H]1C(=O)N[C@@H](C[C@@H]1CCNC1=O)C(=O)COc1ccc(F)cc1F)C2(C)C)C(C)(C)C" please.
a: 1.41

###

# Tested on: SARS-CoV-2 (USA_WA1/2020)
# protocol: Antiviral Activity from SARS-CoV-2 Infection (cytopathic effect, Cell Titer-Glo)
# Format: cell-based
# test.conditions: Severe acute respiratory syndrome coronavirus 2, Vero C1008, 72 h, VeroE6 cells enriched for hACE2, MOI 0.002, 3-day incubation; tested alone or with P-gp inhibitor CP-100356 2 μM (table does not say which); read-out: Geometric Mean EC50
pEC50: −log10 of the molar value.
Classification field: True = pEC50 at or over 7; False = pEC50 under 7.

Solved entries (count: 2):
• CC(C)[C@H](NC(=O)C(F)(F)F)C(=O)N1C[C@H]2[C@@H]([C@H]1C(=O)N[C@@H](C[C@@H]1CC(O)NC1=O)C(=O)COc1ccc(F)cc1F)C2(C)C (some centres unmarked) = False
• COC(=O)N[C@H](C(=O)N1C[C@H]2[C@@H]([C@H]1C(=O)N[C@@H](C[C@@H]1CCNC1=O)C(=O)COc1ccccc1F)C2(C)C)C(C)(C)C = True

q: Please tell me: is the molecule "CC(C)[C@H](NC(=O)C(F)(F)F)C(=O)N1C[C@H]2[C@@H]([C@H]1C(=O)N[C@@H](C[C@@H]1CCNC1=O)C(=O)COc1ccc(F)cc1F)C2(C)C" at or over 7 in terms of pEC50?
a: True

###

# tested.system: SARS-CoV-2 3CL protease (Severe acute respiratory syndrome coronavirus 2)
# Construct: measures the activity of full-length SARS-CoV-2 3CL protease
# protocol: SARS-CoV-2 Coronavirus 3C Protease FRET Assay
# Type: biochemical
# test.conditions: Examples 14-78 and 114 (second head of Table 2); Morrison equation fit, 15 nM enzyme, 25 μM peptide substrate; read-out: Geometric Mean Ki (nM) IC50
measured.attribute: Ki

// each listed compound needs a value for Ki
1. CC(C)(C)[C@H](NS(=O)(=O)C(F)(F)F)C(=O)N1C[C@H]2[C@@H]([C@H]1C(=O)N[C@@H](C[C@@H]1CC(=O)NC1=O)C(=O)COc1ccc(F)cc1F)C2(C)C [Example 44]
2. CC(C)C[C@@H](C(=O)N1C[C@H]2[C@@H]([C@H]1C(=O)N[C@@H](C[C@@H]1CCNC1=O)C(=O)COc1cc(C(F)(F)F)nn1C)C2(C)C)N(C)C(C)C (single isomer, unassigned) [Example 65]
3. CC(C)[C@H](NC(=O)C(F)(F)F)C(=O)N1C[C@H]2[C@@H]([C@H]1C(=O)N[C@@H](C[C@@H]1CCNC1=O)C(=O)COc1ccccc1F)C2(C)C [Example 47]
4. CC(C)[C@H](NC(=O)C(F)(F)F)C(=O)N1C[C@H]2[C@@H]([C@H]1C(=O)N[C@@H](C[C@@H]1CCNC1=O)C(=O)COc1ncnn1-c1ccccc1)C2(C)C [Example 64]
5. CC(C)(C)[C@H](NS(=O)(=O)C(F)(F)F)C(=O)N1C[C@H]2[C@@H]([C@H]1C(=O)N[C@@H](C[C@@H]1CC(O)NC1=O)C(=O)COc1ccc(F)cc1F)C2(C)C (some centres unmarked) [Example 38]

a:
1: 8.95 nM; 2: 96.7 nM; 3: 8.58 nM; 4: 62.2 nM; 5: 4.12 nM

Data origin: patent US20250304559A1
